System: S. aureus
Assay: Minimum inhibitory concentrations (MICs) for S. aureus of exemplary compounds (Table 2)
Format: cell-based
Conditions: Staphylococcus aureus, minimum inhibitory concentrations for S. aureus; read-out: MICs
METRIC: MIC (µg/mL)
// units = µg/mL; emit number, no label

Sample records with MIC:
>  <COMPOUND>
CC(=O)NC[C@H]1CN(c2ccc(-c3ccc(C[S+]([O-])Cc4ccccn4)cc3)c(F)c2)C(=O)O1 (stereo partly drawn)

>  <MEASURED>
1

$$$$
>  <COMPOUND>
CC(=O)NC[C@H]1CN(c2ccc(-c3ccc(CNNc4ccccn4)cc3)c(F)c2)C(=O)O1

>  <MEASURED>
0.5

$$$$
>  <COMPOUND>
CC(=O)NC[C@H]1CN(c2ccc(-c3ccc(CNCc4c[nH]nc4-c4cccs4)cc3)c(F)c2)C(=O)O1

>  <MEASURED>
0.5

$$$$
>  <COMPOUND>
CC(=O)NC[C@H]1CN(c2ccc(-c3ccc(CNCCN4CCNC4=O)cc3)c(F)c2)C(=O)O1

>  <MEASURED>
16

$$$$
>  <COMPOUND>
CC(=O)NC[C@H]1CN(c2ccc(-c3ccc(CN(Cc4nnn(C)n4)C(=O)OC(C)(C)C)cc3)c(F)c2)C(=O)O1

>  <MEASURED>
2

$$$$
>  <COMPOUND>
CSC1=NCCN1Cc1ccc(-c2ccc(N3C[C@H](CNC(C)=O)OC3=O)cc2F)cc1

>  <MEASURED>
2

$$$$
>  <COMPOUND>
CC(=O)NC[C@H]1CN(c2ccc(-c3ccc(CN4CCCC(F)C4)cc3)c(F)c2)C(=O)O1 (mixture of isomers)

>  <MEASURED>
1

$$$$
>  <COMPOUND>
CC(=O)NC[C@H]1CN(c2ccc(-c3ccc(CNCC4CCN(C(=O)OC(C)(C)C)CC4)cc3)c(F)c2)C(=O)O1

>  <MEASURED>
8

$$$$
>  <COMPOUND>
CC(=O)NC[C@H]1CN(c2ccc(-c3ccc(CNCc4cc(C)on4)cc3)c(F)c2)C(=O)O1

>  <MEASURED>
0.25

$$$$
>  <COMPOUND>
CC(=O)NC[C@H]1CN(c2ccc(-c3ccc(CNCc4c(CO)cnc(C)c4O)cc3)c(F)c2)C(=O)O1

>  <MEASURED>
4

$$$$

Record CC(=O)NC[C@H]1CN(c2ccc(-c3ccc(CNCCN4CCOCC4)cc3)c(F)c2)C(=O)O1 , field MIC: 16

Record CC(=O)NC[C@H]1CN(c2ccc(-c3ccc(CNCc4ncsn4)cc3)c(F)c2)C(=O)O1 , field MIC: 1
